Measurement Type: melting point (°C)

Cc1cccc(-c2cn(C)cc(-c3ccccc3)c2=O)c1    79.5

(A) Cc1nc2c(C(F)(F)F)cccc2c(O)c1C(=O)O
(B) CC1(C)C=Cc2cc(S(=O)(=O)C[N+](=O)[O-])ccc2O1
(C) O=C1c2ccccc2C(=O)c2c1cccc2N1CCN(CCO)CC1
Prompt: I would appreciate it if you could sort these 3 compounds by melting point, starting from the smallest number. // rank by listing labels in the order requested
Completion: B, C, A
(B: 81 °C, C: 140 °C, A: 260 °C)

* * *

A collection of molecules and their measured melting point

C=CCn1c(NCCOc2ccccc2)nc(N2CCc3ccccc3CC2)c(C#N)c1=O    157 to 160 °C

Now consider a different molecule.
Prompt: Form field: reported melting point of CN1C(=O)C(c2ccc(Cl)cc2)SC1c1cccnc1 (stereo not given)
Completion: 77.5 to 79 °C
